These data points were gathered from ChEMBL document CHEMBL5236629.

# assay-name: Cytotoxicity against human SK-N-BE(2) cells assessed as reduction in cell viability incubated for 24 hrs by MTT assay
# Assay type: toxicity, cell-based
Where a SMILES comes first, the peptide text is derived from it.

molecule	CC50 at 24 h [mM]
CC[C@H](C)[C@H](NC(=O)[C@H](Cc1c[nH]c2ccccc12)NC(=O)[C@@H]1CCCN1C(=O)[C@@H](N)Cc1ccccc1)C(=O)N[C@H](C(=O)N[C@@H](CO)C(N)=O)[C@@H](C)CC (H-FPWIIS-NH2)	1.73
